Field: GI50. Provide a value for each of the compounds that follow.
- Tested on: SNB-78
- Experiment Description: NCI tumour cell line growth inhibition, 48 h
Calls of active or inactive are those of the source. Rule as the data show it: active = GI50 up to about 1.1 µM and inactive = higher.

-- ask Provide measured GI50 value, entry: CN(C)c1n/c(=N/c2cccc(Cl)c2)ss1
-- reply 18.1 µM (inactive)

-- ask Dear colleague, please send me the reported GI50 for COc1ccc([C@H]2CC(=O)N3CCCC3N2)cc1 (stereo not given in full) when you can.
-- reply > 100 µM (inactive)

-- ask Give the measured GI50 for COc1cccc2c1C(=O)c1c(O)c3c(c(O)c1C2=O)C[C@@](O)(/C(C)=N\O)C[C@@H]3OC1CC(N)C(O)C(C)O1 (stereo not given in full)
-- reply 1.28 µM (inactive)

-- ask Note down GI50 recorded for O=C(OCc1ccccc1)N1N=NC2C1C1CC(OCc3ccccc3)(OCc3ccccc3)C2O1 (stereo not given)
-- reply > 100 µM (inactive)

-- ask Assign GI50 to the following record: CC1CCC(O)C(C(O)CC2CC(=O)N(C)C(=O)C2)C1 (stereo not given)
-- reply > 100 µM (inactive)

====

- Tested on: XF498
- Experiment Description: NCI tumour cell line growth inhibition, 48 h
Calls of active or inactive are those of the source. No stated cut-off is given here; in the data, active = GI50 up to about 1.1 µM and inactive = higher.
Exercise: state measured GI50 for each of the compounds provided.

-- ask For the compound N#C/C(=C/c1cccc(Oc2ccccc2)c1)c1ccccc1 , give its measured GI50 value.
-- reply > 100 µM (inactive)

-- ask Determine its reported GI50: N#Cc1nc(Nc2ccc([N+](=O)[O-])cc2)sc1N
-- reply 17.3 µM (inactive)

-- ask Consider the compound O=[N+]([O-])c1ccc(N=P(c2ccccc2)(c2ccccc2)c2ccccc2)n2nnnc12 and give its recorded GI50.
-- reply 32.7 µM (inactive)

-- ask Fill in reported GI50 for this entry: COc1cc2cccc(/N=C/c3c(Br)ccc(OC)c3OC(C)C)c2cc1OC
-- reply 56.9 µM (inactive)

-- ask In one line, give reported GI50 of the entry S=P(c1ccccc1)(c1ccccc1)C1(C2(P(=S)(c3ccccc3)c3ccccc3)CC2)CC1 .
-- reply > 100 µM (inactive)

====

- Tested on: EKVX
- Experiment Description: NCI tumour cell line growth inhibition, 48 h
Activity calls are given as the source filed them. Cut-off read from the data, not from the text of the source: active = GI50 up to about 1.1 µM and inactive = higher.
Assignment: determine reported GI50 for the given compounds.

-- ask Quickly give me recorded GI50 for CNS(=O)(=O)NN(C)S(=O)(=O)c1ccc(OC)cc1
-- reply > 100 µM (inactive)

-- ask Answer with the recorded GI50 for the compound listed here: COc1ccc(-c2cc(=O)c3c(OC)c(OC)c(OC)cc3o2)cc1
-- reply 37.4 µM (inactive)

-- ask Identify the reported GI50 for the following entry. O=P1(N2CCOCC2)OCCO1
-- reply > 100 µM (inactive)

-- ask Identify measured GI50 associated with COc1ccc2nc(-c3cccc(N(C)C)c3)cc(O)c2c1
-- reply 1.55 µM (inactive)

-- ask For the compound CC12CC3c4ccccc4CN1C3(c1ccccc1)OC2=O (stereo unspecified) , give its measured GI50 value.
-- reply > 100 µM (inactive)

-- ask Respond only with GI50 recorded for Nc1c(S(=O)(=O)O)cc(Nc2cccc(S(N)(=O)=O)c2)c2c1C(=O)c1ccccc1C2=O
-- reply 57 µM (inactive)

====

- Test system: HOP-62
- Experiment Description: NCI tumour cell line growth inhibition, 48 h
Active and inactive are the calls of the source. Cut-off read from the data, not from the text of the source: active = GI50 up to about 1.1 µM and inactive = higher.
Respond using exactly one of the listed classes: YES = active, NO = inactive

-- ask Hi, sorry to bother you, what did the test record for Cc1cnc2cc(Cl)ccc2c1SCC(=O)O ?
-- reply NO

-- ask Could you check what this test reported for [N-]=[N+]=NC1=C(N=[N+]=[N-])c2cccc3cccc(c23)C1=O ?
-- reply NO

-- ask For this compound, state the assay outcome: COC(=O)[C@@H]1[C@H]2CC[C@]3(C)[C@@H](OC(C)=O)CC[C@H]3[C@@H]2CC[C@H]1C1(C)SCCS1
-- reply NO

-- ask Called result for CC12OOC(c3ccccc31)c1c2ccc2ccccc12 (stereo not given)
-- reply NO

-- ask Hi, do you know how O=S(=O)(O)c1ccc(-c2nnc(-c3ccccn3)nc2-c2ccc(S(=O)(=O)O)o2)o1 came out in this test?
-- reply NO

-- ask Any idea what this test logged for Cc1nc2c(cc1OCc1ccccc1)C(=O)C1=C(C2=O)C2OC(=O)CC2OC1(C)C (stereo not given) ?
-- reply NO

-- ask For this compound, state the assay outcome: COC(=O)C1=C(O)c2cc(OC)c(OC)cc2C(c2ccc(OC)c(OC)c2)C1 (stereo not given)
-- reply NO

-- ask Tell me the recorded outcome of this test for Cc1ncc([N+](=O)[O-])n1CCNCCCn1ccnc1[N+](=O)[O-] .
-- reply NO

-- ask Answer briefly: the call reported for CSc1nc2ccccc2c(=O)n1/N=C1\C(=O)N(CN2CCOCC2)c2ccc(Cl)cc21 in this assay.
-- reply NO

-- ask What outcome does the record of this test show for CO[C@H]1C[C@](C)(O)Cc2cc3c(c(O)c21)C(=O)c1c(O)cc2c(c1C3=O)O[C@@H]1O[C@@]2(C)[C@H](O)[C@@H](N(C)C)[C@@H]1O ?
-- reply YES

====

- Test system: TK-10
- Experiment Description: NCI tumour cell line growth inhibition, 48 h
Calls of active or inactive are those of the source. No stated cut-off is given here; in the data, active = GI50 up to about 1.1 µM and inactive = higher.
Task for the reader: assign each of the following compounds its reported GI50.

-- ask Query GI50 for CN(Cc1cnc2nc(N)nc(N)c2n1)c1ccc(C(=O)NCCCC(=O)O)cc1
-- reply > 69 µM (inactive)

-- ask Note down GI50 recorded for CCP(=O)(CC)C(Cl)Cl
-- reply > 100 µM (inactive)

-- ask Indicate the recorded GI50 value for this compound: c1ccc2c(c1)cc1c3[nH]c4ccccc4c3ccn21
-- reply > 10 µM (inactive)

-- ask Tell us which GI50 value is on record for COc1ccccc1Nc1nc(N)nc(N)c1N=O
-- reply > 100 µM (inactive)

-- ask Please report the measured GI50 for O=C1CSC(=O)/C1=C\NNc1nc2ccccc2o1
-- reply 53.3 µM (inactive)

-- ask Give reported GI50 value for CC(Nc1ccc(Cl)c(Cl)c1)c1ccncc1 (configuration not stated)
-- reply 31.9 µM (inactive)

-- ask Identify GI50 associated with the compound CCCCOP1(=O)C=CC(Cl)=C(C)C1 (configuration not stated)
-- reply 36.6 µM (inactive)

-- ask For the compound CCOP(=O)(OCC)OC1CC(n2cnc3c(N(CC)CC)ncnc32)OC1CO[Si](C)(C)C(C)(C)C (configuration not stated) , give its measured GI50 value.
-- reply 18.3 µM (inactive)

-- ask Look up and report measured GI50 for this entry: N#CC(=N)c1ncn(CCO)c1NC(=O)C(F)(F)F
-- reply > 100 µM (inactive)

-- ask Let me know recorded GI50 for c1cnn(C23C4C5C6C4C2C6C53)c1 (configuration not stated) , thanks.
-- reply > 100 µM (inactive)

-- ask Note GI50 for the compound shown: Clc1ccccc1-c1nnc2c(-c3ccccc3)nc3ccccc3n12
-- reply > 100 µM (inactive)

-- ask Input CSc1nc2ccccc2c(=O)n1/N=C1\C(=O)N(CN2CCOCC2)c2ccc(Cl)cc21 , output reported GI50.
-- reply 16.9 µM (inactive)

====

- Test system: U-251
- Experiment Description: NCI tumour cell line growth inhibition, 48 h
The source made the active and inactive calls. No stated cut-off is given here; in the data, active = GI50 up to about 1.1 µM and inactive = higher.
Recorded Metric: GI50

-- ask Quick one: give measured GI50 for Brc1ccc2c(c1)C1(c3cc(Br)ccc3-2)c2cc(Br)ccc2-c2ccc(Br)cc21
-- reply > 100 µM (inactive)

-- ask Entry CC(C)[C@H]1CO[C@]2(C)[C@@H]3CN(Cc4ccccc4)C[C@@H]3C(=O)N12 needs its GI50 filled in; supply it.
-- reply > 100 µM (inactive)

-- ask Supply recorded GI50 for O=C(Cc1ccccc1)NN1C(=O)C(Cl)C1c1cccc([N+](=O)[O-])c1 (stereo not given) here.
-- reply 63.2 µM (inactive)

-- ask Indicate the recorded GI50 value for this compound: CCC1(CC)C(=O)N(C(=O)c2cc(OC)c(OC)c(OC)c2)N(C(=O)c2cc(OC)c(OC)c(OC)c2)C1=O
-- reply > 50 µM (inactive)

-- ask Return GI50 (reported value) for this compound: COc1cc2c(cc1OC)OC(c1c(OC)ccc(OC)c1O)CC2 (stereo not given)
-- reply > 100 µM (inactive)

-- ask Give the reported GI50 for this compound. O=C(O)c1cccc(S(=O)(=O)NN2C(=O)CSC2c2ccccc2)c1 (stereo not given)
-- reply > 100 µM (inactive)

-- ask Read the entry COc1cc(NC(C)c2ccc3c(c2)OCCO3)cc(OC)c1OC (stereo not given) and write its reported GI50.
-- reply 29.5 µM (inactive)

-- ask Entry Cc1ccc(NC(=O)C2C(=O)N(c3ccc(C)c(C)c3)C(=O)/C2=N/O)cc1C (stereo not given) needs its GI50 filled in; supply it.
-- reply > 100 µM (inactive)

-- ask Give GI50 for the following compound: CN(C)CCNC(=O)c1ccc2nc3c(nc2c1)C(=O)c1ccccc1-3
-- reply 24.2 µM (inactive)

-- ask Identify GI50 associated with the compound CCOC(=O)C(C)(C)Oc1ccc(Cl)cc1 [CLOFIBRATE]
-- reply > 1000 µM (inactive)
